experiment: Aqueous solubility of the compound; assay type: physicochemical; settings: aqueous medium; read-out: solubility
measurement_name: solubility (µg/mL)
Quick note: give the figure in µg/mL, leave out the unit.

smiles_notation=C[C@@H](c1ccc(-c2ccn(C)c(=O)c2)cc1)N1CC[C@](CC(C)(C)O)(c2ccccc2)OC1=O measured_value=220

Looking for the measured solubility of C[C@@H](c1ccc(OC(F)F)cc1)N1CC[C@](CCC(N)=O)(c2ccc(F)cc2)OC1=O , can you help?
460

Could you share which solubility value was measured for C[C@@H](c1ccc(OC(F)F)cc1)N1CC[C@](CCC(N)=O)(c2ccccc2)OC1=O ?
1500

Given the compound C[C@@H](c1ccc(Br)cc1)N1CC[C@](CCC(N)=O)(c2ccc(F)cc2)OC1=O , what is its reported solubility?
300

Return reported solubility; argument: C[C@@H](c1ccc(OC(F)F)cc1)N1CC[C@](CC(C)(C)O)(c2ccccc2)OC1=O
260

---

assay: Clearance in iv dosed cynomolgus monkey; type: ADME, organism-based, Macaca fascicularis; details: in vivo
Below: a set of entries, each annotated with reported clearance.
Answer in mL/min/kg, number only, no unit symbol.

Worked cases, answers included:
smiles_notation=Cc1ccc(-c2ccc([C@H](C)N3CC[C@](CC(C)(C)O)(c4ccccc4)OC3=O)cc2)nn1 measured_value=5.2
smiles_notation=C[C@@H](c1ccc(-c2ccn(C)c(=O)c2)cc1)N1CC[C@](CC(C)(C)O)(c2ccccc2)OC1=O measured_value=7.5
smiles_notation=C[C@@H](c1ccc(-c2ccc(=O)n(C)c2)cc1)N1CC[C@](CC(C)(C)O)(c2ccccc2)OC1=O measured_value=11

Recorded clearance for Cc1ncc(-c2ccc([C@H](C)N3CC[C@](CC(C)(C)O)(c4ccccc4)OC3=O)cc2)cn1 , please?
8.1

---

tested on: Cynomolgus monkey; assay: Dose normalized AUC in iv dosed cynomolgus monkey; format: ADME, organism-based, Macaca fascicularis; conditions: in vivo
measurement_name: AUC/dose (nM·h)
Reply numerically in nM·h, unit not repeated.

The examples below pair each entry with its known result.
smiles_notation=Cc1ccc(-c2ccc([C@H](C)N3CC[C@](CC(C)(C)O)(c4ccccc4)OC3=O)cc2)nn1 measured_value=3330
smiles_notation=Cc1ncc(-c2ccc([C@H](C)N3CC[C@](CC(C)(C)O)(c4ccccc4)OC3=O)cc2)cn1 measured_value=2070
smiles_notation=C[C@@H](c1ccc(-c2ccn(C)c(=O)c2)cc1)N1CC[C@](CC(C)(C)O)(c2ccccc2)OC1=O measured_value=2500

With those in mind, consider the next molecule.
Quick one: AUC/dose of C[C@@H](c1ccc(-c2ccc(=O)n(C)c2)cc1)N1CC[C@](CC(C)(C)O)(c2ccccc2)OC1=O ?
1770

---

clearance by entry:
assay: Clearance in iv dosed rat; format: ADME, organism-based; details: in vivo
The number alone won't do; follow it with the unit.

Below are worked cases with known answers.
smiles_notation=C[C@@H](c1ccc(Br)cc1)N1CC[C@](CCC(N)=O)(c2ccc(F)cc2)OC1=O measurement_name=clearance measured_value="49 mL/min/kg"
smiles_notation=C[C@@H](c1ccc(OC(F)F)cc1)N1CC[C@](CCC(N)=O)(c2ccc(F)cc2)OC1=O measurement_name=clearance measured_value="67 mL/min/kg"
smiles_notation=C[C@@H](c1ccc(OC(F)F)cc1)N1CC[C@](CCC(N)=O)(c2ccccc2)OC1=O measurement_name=clearance measured_value="91 mL/min/kg"

Next molecule, please.
# lookup: clearance of C[C@@H](c1ccc(OC(F)F)cc1)N1CC[C@](CC(C)(C)O)(c2ccccc2)OC1=O
23 mL/min/kg

---

The entries below come with measured half-life values attached.
assay: Half life in rat liver microsomes; assay type: ADME, microsome

Here are 3 molecules together with their reported answers.
smiles_notation=Cc1cc(-c2ccc([C@H](C)N3CC[C@](CC(C)(C)O)(c4ccccc4)OC3=O)cc2)cc(C)n1 measured_value="> 45 min"
smiles_notation=Cc1ccc(-c2ccc([C@H](C)N3CC[C@](CC(C)(C)O)(c4ccccc4)OC3=O)cc2)nn1 measured_value="> 45 min"
smiles_notation=C[C@@H](c1ccc(OC(F)(F)F)cc1)N1CC[C@](CCC(N)=O)(c2ccc(F)cc2)OC1=O measured_value="> 60 min"

Then there is this molecule:
I have this molecule here, COc1ccc([C@H](C)N2CC[C@](CCC(N)=O)(c3ccc(F)cc3)OC2=O)cc1 , and I need its recorded half-life.
9 min

---

assay: Half life in human liver microsomes; assay type: ADME, microsome
measurement_name: half-life

Please review the following examples before continuing.
smiles_notation=C[C@@H](c1ccc(Br)cc1)N1CC[C@](CCC(N)=O)(c2ccc(F)cc2)OC1=O measured_value="> 1.5 h"
smiles_notation=C[C@@H](c1ccc(OC(F)F)cc1)N1CC[C@](CCC(N)=O)(c2ccccc2)OC1=O measured_value="> 1.5 h"
smiles_notation=C[C@@H](c1ccc(-c2ccc(F)cn2)cc1)N1CC[C@](CC(C)(C)O)(c2ccccc2)OC1=O measured_value="> 0.75 h"
smiles_notation=C[C@@H](c1ccc(-c2ccc(C#N)cn2)cc1)N1CC[C@](CC(C)(C)O)(c2ccccc2)OC1=O measured_value="> 1.5 h"
smiles_notation=C[C@@H](c1ccc(OC(F)F)cc1)N1CC[C@](CCC(N)=O)(c2ccc(F)cc2)OC1=O measured_value="> 1.5 h"

Please give the measured half-life for this molecule: C[C@@H](c1ccc(OC(F)F)cc1)N1CC[C@](CC(C)(C)O)(c2ccccc2)OC1=O
> 1.5 h

Tell me the measured half-life of Cc1cc(-c2ccc([C@H](C)N3CC[C@](CC(C)(C)O)(c4ccccc4)OC3=O)cc2)cc(C)n1 , please.
> 0.75 h

Recorded half-life of Cc1ncc(-c2ccc([C@H](C)N3CC[C@](CC(C)(C)O)(c4ccccc4)OC3=O)cc2)cn1 , please.
> 1.5 h

Using the record for C[C@@H](c1ccc(-c2ccc(C(N)=O)cn2)cc1)N1CC[C@](CC(C)(C)O)(c2ccccc2)OC1=O , report its half-life.
> 1.5 h

---

test: Oral bioavailability in cynomolgus monkey; format: ADME, organism-based, Macaca fascicularis; details: in vivo
measurement_name: bioavailability (%)
Report as a plain number; the unit % is understood.

Known results for compounds:
smiles_notation=Cc1ncc(-c2ccc([C@H](C)N3CC[C@](CC(C)(C)O)(c4ccccc4)OC3=O)cc2)cn1 unit_spec=% measured_value=96
smiles_notation=C[C@@H](c1ccc(-c2ccc(=O)n(C)c2)cc1)N1CC[C@](CC(C)(C)O)(c2ccccc2)OC1=O unit_spec=% measured_value=39
smiles_notation=C[C@@H](c1ccc(-c2ccn(C)c(=O)c2)cc1)N1CC[C@](CC(C)(C)O)(c2ccccc2)OC1=O unit_spec=% measured_value=54

Would you kindly look at the next entry?
Given Cc1ccc(-c2ccc([C@H](C)N3CC[C@](CC(C)(C)O)(c4ccccc4)OC3=O)cc2)nn1 , state its recorded bioavailability.
70

---

target: Cytochrome P450 3A4 (Homo sapiens); assay: Inhibition of recombinant CYP3A4 (unknown origin)
Sequence (P08684 whole entry): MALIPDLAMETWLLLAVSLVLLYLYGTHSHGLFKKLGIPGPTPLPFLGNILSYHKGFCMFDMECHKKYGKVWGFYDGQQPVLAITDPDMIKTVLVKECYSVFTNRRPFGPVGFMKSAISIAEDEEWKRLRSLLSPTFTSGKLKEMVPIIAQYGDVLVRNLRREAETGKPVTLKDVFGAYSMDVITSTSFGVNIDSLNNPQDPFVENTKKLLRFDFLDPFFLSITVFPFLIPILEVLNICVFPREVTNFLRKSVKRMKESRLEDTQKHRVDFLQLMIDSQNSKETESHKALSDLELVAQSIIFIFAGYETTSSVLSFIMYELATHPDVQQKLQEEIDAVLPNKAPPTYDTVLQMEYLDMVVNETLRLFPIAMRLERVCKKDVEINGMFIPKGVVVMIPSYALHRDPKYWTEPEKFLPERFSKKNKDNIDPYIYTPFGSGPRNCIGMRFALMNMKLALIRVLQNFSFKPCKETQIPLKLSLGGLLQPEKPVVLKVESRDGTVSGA
# pIC50 per entry
Notebook: values listed as pIC50 are -log10 of the concentration (mol/L).

These recorded examples may help you get a feel for the data.
smiles_notation=C[C@@H](c1ccc(-c2cncc(F)c2)cc1)N1CC[C@](CCCO)(c2ccccc2)OC1=O measured_value=4.96
smiles_notation=C[C@@H](c1ccc(-c2ccc3ncnn3c2)cc1)N1CC[C@](CC(C)(C)O)(c2ccccc2)OC1=O measured_value=5.00
smiles_notation=C[C@@H](c1ccc(-c2cccnc2)cc1)N1CC[C@](CCCO)(c2ccccc2)OC1=O measured_value=5.68

We now examine a further molecule.
Field request: pIC50 | item: C[C@@H](c1ccc(OC(F)F)cc1)N1CC[C@](CC(C)(C)O)(c2ccc(F)cc2)OC1=O
5.18

---

experiment: Mean residence time in iv dosed cynomolgus monkey; type: ADME, organism-based, Macaca fascicularis; conditions: in vivo
measurement_name: MRT (h)
Respond numerically; units are h and should not be typed.

Look over these answered cases.
smiles_notation=C[C@@H](c1ccc(-c2ccn(C)c(=O)c2)cc1)N1CC[C@](CC(C)(C)O)(c2ccccc2)OC1=O measurement_name=MRT measured_value=5.5
smiles_notation=C[C@@H](c1ccc(-c2ccc(=O)n(C)c2)cc1)N1CC[C@](CC(C)(C)O)(c2ccccc2)OC1=O measurement_name=MRT measured_value=2.7
smiles_notation=Cc1ncc(-c2ccc([C@H](C)N3CC[C@](CC(C)(C)O)(c4ccccc4)OC3=O)cc2)cn1 measurement_name=MRT measured_value=3.5

Now look at this one.
Requested read-out: MRT. Entry: Cc1ccc(-c2ccc([C@H](C)N3CC[C@](CC(C)(C)O)(c4ccccc4)OC3=O)cc2)nn1
4.8

---

test: Mean residence time in po dosed cynomolgus monkey; type: ADME, organism-based, Macaca fascicularis; conditions: in vivo
measurement_name: MRT
// return the numeric value with its unit appended

Take a look at these entries with their results.
smiles_notation=Cc1ncc(-c2ccc([C@H](C)N3CC[C@](CC(C)(C)O)(c4ccccc4)OC3=O)cc2)cn1 measured_value="4.8 h"
smiles_notation=Cc1ccc(-c2ccc([C@H](C)N3CC[C@](CC(C)(C)O)(c4ccccc4)OC3=O)cc2)nn1 measured_value="5.3 h"
smiles_notation=C[C@@H](c1ccc(-c2ccc(=O)n(C)c2)cc1)N1CC[C@](CC(C)(C)O)(c2ccccc2)OC1=O measured_value="4.8 h"

Pending compound:
Field request: MRT | item: C[C@@H](c1ccc(-c2ccn(C)c(=O)c2)cc1)N1CC[C@](CC(C)(C)O)(c2ccccc2)OC1=O
8.7 h
